Origin of the recorded values: PubChem BioAssay (NCI)

experiment summary: NCI Yeast Anticancer Drug Screen. Data for the sgs1 mgt1 strain (AID 161)
assay setup: S. cerevisiae sgs1 mgt1 strain, at 50.0 µM (retest, dose inferred, filed as 5.0)
Compounds without any hit were thinned out: in the full panel of roughly 79,000, 15% have a hit. The source made the active and inactive calls. No stated cut-off is given here; in the data, active means growth inhibition above about 70%; inactive means the rest.
Classes used: active, inactive

• OCC(O)C(O)C(O)C(O)C(O)C(/C=N/Nc1ccccc1)=N/Nc1ccccc1 (stereo unspecified) = inactive
• NC(CCC(=O)NC(CS(=O)(=O)O)C(=O)O)C(=O)O (stereo unspecified) = inactive
• CC(=O)OC12CC(C(F)(F)F)(C(F)(F)F)OC1(OC(C)=O)CC(C(F)(F)F)(C(F)(F)F)O2 (stereo unspecified) = inactive
• O=C(Nc1ccc(S(=O)(=O)NC2CCCCC2)cc1)OC1CCCCC1 = active
• Cc1ccc(S(=O)(=O)Nc2ccccc2Cl)cc1 = active
• COc1cc(/C=C(/C)C[N+](=O)[O-])ccc1O = active
• Nc1nnc(-c2cc([N+](=O)[O-])cc([N+](=O)[O-])c2)o1 = inactive
• CCN(CC)CCOC(=O)C1C(c2ccccc2)C1(c1ccccc1)c1ccccc1 (stereo unspecified) = active
• O=C1/C(=C/O)CCc2c1ccc1ccccc21 = active
• Cc1[nH]nc(-c2ccon2)c1N=O = active
• COC(=O)c1[nH]cnc1/N=N/N(C)C = active
